# experiment.summary: Encapsulation rate of siRNA in nucleic acid lipid particles (Luc2-siRNA)
# Format: physicochemical
# measurement.parameters: compound/DSPC/cholesterol/DMG-PEG2000 50/10/38.5/1.5
Overview of recorded Nucleic acid encapsulation rate for various molecules
The response must be a number in % with no trailing unit.

molecule: CCCCC/C=C\C/C=C\CCCCCCCCC(CCCCCCCC/C=C\C/C=C\CCCCC)OC(=O)OCCN(CCCCCCCC)CCN(C)C
Nucleic acid encapsulation rate / %: 80
//
molecule: CCCCCCCCCCCC(=O)OCCN(CCOC(=O)OC(CCCCCC)CCCC(=O)OCC(CCCC)CCCCCC)CCN(CC)CC (stereo not shown)
Nucleic acid encapsulation rate / %: 80
//
molecule: CCCCCCCCC(CCCCCC)COC(=O)CCCCCCCCC(CCCCC)OC(=O)OCCN(CCO)CCN(CC)CC (stereo not shown)
Nucleic acid encapsulation rate / %: 41
//
molecule: CCCCC/C=C\C/C=C\CCCCCCCCC(CCCCCCCC/C=C\C/C=C\CCCCC)OC(=O)OCCN(CCN(C)CC)C(C)(C)C
Nucleic acid encapsulation rate / %: 81
//
molecule: CCCCCCC(CCCC)COC(=O)CCCCCCCCC(CCCCCC)OC(=O)OCCN(CCO)CCCN(CC)CC (stereo not shown)
Nucleic acid encapsulation rate / %: 60
//
molecule: CCCCC/C=C\C/C=C\CCCCCCCC(CCCCCCCCCC)OC(=O)OCCN(CC)CCN(C)C (stereo not shown)
Nucleic acid encapsulation rate / %: 87

The molecule CCCCC/C=C\C/C=C\CCCCCCCCN(CCCCCCCC/C=C\C/C=C\CCCCC)C(=O)OCCN(C)C [Comparative Example 3, reference compound] showed Nucleic acid encapsulation rate equal to 80

The molecule listed as CCCCC/C=C\C/C=C\CCCCCCCCC(CCCCCCCC/C=C\C/C=C\CCCCC)OC(=O)OCCN(C)CCN(C)CCO has a reported Nucleic acid encapsulation rate of 75

Documented Nucleic acid encapsulation rate of CCCCC/C=C\C/C=C\CCCCCCCCC(CCCCCCCC/C=C\C/C=C\CCCCC)OC(=O)OCCN(C)CCN1CCOCC1 : 78

Kindly note the recorded Nucleic acid encapsulation rate for CCCCC/C=C\C/C=C\CCCCCCCCC(CCCCCCCC/C=C\C/C=C\CCCCC)OC(=O)OCCN(CCCC)CCN(CC)CC , which is 88

Query CCCCC/C=C\C/C=C\CCCCCCCCC(CCCCCCCC/C=C\C/C=C\CCCCC)OC(=O)OCCN(CCN(C)C)C(C)C yields Nucleic acid encapsulation rate of 76

Briefly, Nucleic acid encapsulation rate measured for CCCCC/C=C\C/C=C\CCCCCCCCC(CCCCCCCC/C=C\C/C=C\CCCCC)OC(=O)OCCN(CCCCCCCCCCCC)CCN(C)C : 78

The reported value for CCCCC/C=C\C/C=C\CCCCCCCCN(CCCCCCCC/C=C\C/C=C\CCCCC)C(=O)OCCN(C)CCN(CC)CC in terms of Nucleic acid encapsulation rate is 84

Nucleic acid encapsulation rate for CCCCCC/C=C/COC(=O)CCCCCCCN(CCCCCCCC(=O)OC/C=C/CCCCCC)C(=O)OCCN(C)CCN(C)C is 100

Recorded result, CCCCCCCC/C=C\CCCCCCCC(=O)OCCCCCCC(CCCCCCOC(=O)CCCCCCC/C=C\CCCCCCCC)OC(=O)OCCN(CCCCCC)CCN(C)C , Nucleic acid encapsulation rate: 78

The molecule listed as CCCCC/C=C\C/C=C\CCCCCCCCN(CCCCCCCC/C=C\C/C=C\CCCCC)C(=O)OCCN(C)CCN(C)C shows Nucleic acid encapsulation rate equal to 84

Kindly note the recorded Nucleic acid encapsulation rate for CCCCCCCCC(CCCCCC)COC(=O)CCCC(CCCCCC)OC(=O)OCCN(CC)CCN(CC)CC (stereo not shown) , which is 78

Form field Nucleic acid encapsulation rate, entry CCCCCCCCC(CCCCCC)COC(=O)CCCC(CCCCCC)OC(=O)OCCN(CCN(CC)CC)C(C)C (stereo not shown) : 82

Form: molecule = CCCCCCCCCC(=O)OCCN(CCOC(=O)OC(CCCCCC)CCCCCCCCC(=O)OCC(CCCC)CCCCCC)CCN(CC)CC (stereo not shown) ; Nucleic acid encapsulation rate = 79

Given item CCCCCCCC(CCCCCCC)COC(=O)CCCCCCCCC(CCCCCC)OC(=O)OCCN(CCN(CC)CC)C(C)C (stereo not shown) , the value recorded as its Nucleic acid encapsulation rate is 78

====

# experiment.summary: Particle size of nucleic acid lipid particles (Luc2-siRNA)
# Format: physicochemical
# measurement.parameters: compound/DSPC/cholesterol/DMG-PEG2000 50/10/38.5/1.5
Parameter: Particle size (nm). Scope: all listed entries.
Record the value in nm, omitting the unit from your answer.

Before answering, review these 3 worked examples.
molecule: CCCCC/C=C\C/C=C\CCCCCCCCC(CCCCCCCC/C=C\C/C=C\CCCCC)OC(=O)OCCN(CCC)CCN(C)C(C)C [Example 64]
meas.value: 61.5
//
molecule: CCCCC/C=C\C/C=C\CCCCCCCCC(CCCCCCCC/C=C\C/C=C\CCCCC)OC(=O)OCCN(CCN(C)C)C(C)C [Example 25]
meas.value: 68.5
//
molecule: CCCCC/C=C\C/C=C\CCCCCCCCC(CCCCCCCC/C=C\C/C=C\CCCCC)OC(=O)OCCN(CCN(C)CC)C(C)(C)C [Example 79]
meas.value: 65.5

Attention now turns to another entry.
Looking up CCCCCCCC/C=C\CCCCCCCCOC(=O)CCCC(CCCCCC)OC(=O)OCCN(CCN(CC)CC)C(C)C (stereo not shown) [Example 115] , I found its Particle size (nm) recorded as 88.6

====

# experiment.summary: Nucleic acid encapsulation rate of nucleic acid lipid particles (FVII-siRNA)
# Format: physicochemical
In plain terms, low Nucleic acid encapsulation rate, meaning strictly below 80%, gives satisfied, and everything else gives not satisfied.

Regarding CCCCC/C=C\C/C=C\CCCCCCCCC(CCCCCCCC/C=C\C/C=C\CCCCC)N(C)CCN(C)C [Comparative Example 9, reference compound] , kindly confirm whether its Nucleic acid encapsulation rate is beneath 80%.
satisfied

Hi there! Is Nucleic acid encapsulation rate for CCCCC/C=C\C/C=C\CCCCCCCCC(CCCCCCCC/C=C\C/C=C\CCCCC)OC(=O)OCCN(CCCCCCCC)CCN(C)C [Example 52] below 80%, do you know?
not satisfied

Hi there! Is Nucleic acid encapsulation rate for CCCCCCC(CCCCCC)C(=O)OCCCCCCC(CCCCCCOC(=O)C(CCCCCC)CCCCCC)OC(=O)OCCN(CC)CCN(CC)CC [Example 77] below 80%, do you know?
satisfied

====

Reported Particle size (nm) values are given for each entry in this list.
# experiment.summary: Particle size of nucleic acid lipid particles (Luc2-siRNA)
# Assay type: physicochemical
# measurement.parameters: compound/DSPC/cholesterol/DMG-PEG2000 50/10/38.5/1.5
Report only the number, with the unit nm understood.

# example entries with known answers
molecule: CCCCC/C=C\C/C=C\CCCCCCCCC(CCCCCCCC/C=C\C/C=C\CCCCC)OC(=O)OCCCN(C)C [Comparative Example 8, reference compound]
meas.value: 63.1

molecule: CCCCCCCCCCCCC(CCCCCCCCC(=O)OCC(CCCC)CCCCCC)OC(=O)OCCN(CCN(CC)CC)C(C)C (stereo not shown)
meas.value: 60.9

Form field Particle size (nm), entry CCCCCCCCCCCCC(CCCCCCCCCC)COC(=O)CCCC(CCCCCC)OC(=O)OCCN(CCN(CC)CC)C(C)C (stereo not shown) : 67.8

For record CCCCC/C=C\C/C=C\CCCCCCCCC(CCCCCCCC/C=C\C/C=C\CCCCC)OC(=O)OCCN(CCCC)CCN(CC)CC the listed Particle size (nm) is 78.3

The molecule identified as CCCCCCCCCCCC(=O)OCCN(CCOC(=O)OC(CCCCCC)CCCCCCCCC(=O)OCC(CCCC)CCCCCC)CCN(CC)CC (stereo not shown) registered its Particle size (nm) at 67.1

Documented Particle size (nm) of CCCCC/C=C\C/C=C\CCCCCCCCN(CCCCCCCC/C=C\C/C=C\CCCCC)C(=O)OCCN(C)CCCN(C)C : 81.4

Sure, the documented Particle size (nm) for CCCCC/C=C\C/C=C\CCCCCCCCC(CCCCCCCC/C=C\C/C=C\CCCCC)N(C)CCN(C)C [Comparative Example 9, reference compound] is 58.4

====

Listing of entries alongside the reported Particle size (nm).
# experiment.summary: Particle size of nucleic acid lipid particles (Luc2-siRNA)
# Type: physicochemical
# measurement.parameters: compound/DSPC/cholesterol/DMG-PEG2000 50/10/38.5/1.5
// return numeric value only (unit: nm, not printed)

compound: CCCCCCCCCC(=O)OCCN(CCOC(=O)OC(CCCCCC)CCCC(=O)OCC(CCCC)CCCCCC)CCN(CC)CC (stereo not drawn) [Example 107]
meas.value: 64.8

compound: CCCCCCCC/C=C\CCCCCCCC(=O)OCCN(CCOC(=O)OC(CCCCCC)CCCCCCCCC(=O)OCC(CCCCCC)CCCCCCCC)CCN(CC)CC (stereo not drawn) [Example 118]
meas.value: 93.6

compound: CCCCCCCCC(CCCCCC)COC(=O)CCCCCCCCC(CCCCC)OC(=O)OCCN(CCN(CC)CC)C(C)C (stereo not drawn) [Example 127]
meas.value: 80.7

compound: CCCCCCCC/C=C\CCCCCCCC(=O)OCCN(CCOC(=O)OC(CCCCCC)CCCC(=O)OCC(CCCCCC)CCCCCCCC)CCN(CC)CC (stereo not drawn) [Example 120]
meas.value: 66.5

compound: CCCCCCCC/C=C\CCCCCCCC(=O)OCCN(CCCN(CC)CC)CCOC(=O)OC(CCCCCC)CCCCCCCCC(=O)OCC(CCCC)CCCCCC (stereo not drawn) [Example 93]
meas.value: 70.4

Proceeding to the next compound to report its Particle size (nm).
CCCCCCCC/C=C\CCCCCCCC(=O)OCCN(CCOC(=O)OC(CCCCCC)CCCC(=O)OCC(CCCC)CCCCCC)CCN(CC)CC (stereo not drawn) [Example 119] has a reported Particle size (nm) of 67.8

// data source = patent US12370143B2
